# Test system: HCT-116 colon
# Assay summary: NCI-60 one-dose screen, 48 h (100 = growth as untreated, 0 = no growth, -100 = all killed)
# Recorded conditions: 10 µM unless noted
Compounds without any hit were thinned out: in the full panel of roughly 83,000, 20% have a hit.
One threshold, 40%, splits the recorded growth values: lower ones are true, equal or higher ones are false.

For orientation, consider the following solved cases.
{"Compound": "Cc1ccc(-c2cc3nc(C(Cl)Cl)nc(C)n3n2)cc1", "Tgt": "HCT-116 colon", "Assigned label": "false"}
{"Compound": "Cc1cccc(/C=C/C(=O)Nc2ncc(Cc3cccc(C)c3)s2)c1", "Tgt": "HCT-116 colon", "Assigned label": "true"}
{"Compound": "NS(=O)(=O)c1ccc(Nc2nc(N/N=C/c3ccc(Cl)cc3)nc(Nc3ccccc3)n2)cc1", "Tgt": "HCT-116 colon", "Assigned label": "false"}
{"Compound": "Cc1ccc2c(c1)Oc1nc(N)c(C#N)c(N)c1C2Sc1ccc(F)cc1 (centres undefined)", "Tgt": "HCT-116 colon", "Assigned label": "true"}
{"Compound": "CC1(C)NCCC[C@]2(C)[C@H]3C/C(=N\\O)C4[C@@H]5C[C@@](C)(CO)CC[C@]5(C)CC[C@@]4(C)[C@]3(C)CC[C@@H]12 (some centres undefined)", "Tgt": "HCT-116 colon", "Assigned label": "false"}

Ask: Is the reported growth for O=C(Nc1nc2ccc([N+](=O)[O-])cc2s1)Nc1ccccc1Cl strictly below 40%?
Result: true

Ask: Determine if Cc1ccc(-n2cc(/C=N/NC(=O)c3nc(N)n[nH]3)c(-c3ccc(S(C)(=O)=O)cc3)n2)cc1 shows growth strictly lower than 40%.
Result: false

Ask: Strictly below 40%: is that where growth of CCO/C=N/C1=C(C#N)C(c2ccc(F)cc2)c2sc3c(CC)cccc3c2O1 (centres undefined) sits?
Result: true

Ask: Given O=C(Nc1ccc(Br)cc1)Nc1nc2ccc([N+](=O)[O-])cc2s1 , is recorded growth strictly lower than 40%?
Result: true

Ref: PubChem BioAssay (NCI)
